# TEST_TARGET: IFN-αI (human, UniProt P01571 24-189)
# ASSAY_NOTES: cell-based or functional assay
ENDPOINT: IC50 (pM), ISRE assay
Report as a plain number; the unit pM is understood.

BINDER | UNIT_STRING | IC50 (pM), ISRE assay
IFWM3322 (antibody, IgG1, V domains shown) VH: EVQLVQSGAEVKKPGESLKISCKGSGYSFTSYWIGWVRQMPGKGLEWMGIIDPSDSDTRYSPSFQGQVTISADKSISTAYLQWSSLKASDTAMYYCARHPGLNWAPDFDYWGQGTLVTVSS VL: DIQMTQSPSSLSASVGDRVTITCRASQSIADFLNWYQQKPGKAPKLLIYFASSLQSGVPSRFSGSGSGTDFTLTISSLQPEDFATYYCQQSHSFPLTFGQGTKVEIK | pM | 460

IFWM3400 (antibody, IgG1, V domains shown) VH: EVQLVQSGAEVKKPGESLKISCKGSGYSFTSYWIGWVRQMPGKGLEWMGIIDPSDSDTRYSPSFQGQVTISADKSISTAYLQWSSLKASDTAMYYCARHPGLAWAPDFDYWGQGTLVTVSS VL: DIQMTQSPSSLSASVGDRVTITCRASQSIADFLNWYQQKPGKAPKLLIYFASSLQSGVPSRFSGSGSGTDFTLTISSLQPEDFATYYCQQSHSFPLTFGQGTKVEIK has a reported IC50 (pM), ISRE assay of 137

Item: IFWM3320 (antibody, IgG1, V domains shown) VH: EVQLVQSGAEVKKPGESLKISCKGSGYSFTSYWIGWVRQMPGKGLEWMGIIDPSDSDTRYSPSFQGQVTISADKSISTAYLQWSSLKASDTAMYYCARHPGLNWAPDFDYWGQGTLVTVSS VL: DIQMTQSPSSLSASVGDRVTITCRASQSINGVLNWYQQKPGKAPKLLIYFASSLQSGVPSRFSGSGSGTDFTLTISSLQPEDFATYYCQQSHDFPLTFGQGTKVEIK | IC50 (pM), ISRE assay: 355
